Values from the supplement of paper PMC6555819

# Tested on: PPARg:RXRa 90nM:30nM, anti-RXR (NR concentration 90 nM, RXRa partner concentration 30 nM)
# ASSAY_NAME: PBM binding z-score (relative to random genomic background probes); higher = stronger binding; sequences stand for … in GC…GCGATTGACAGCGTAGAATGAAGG
MEASURED_ENDPOINT: PBM binding z-score

{"BIOSEQUENCE": "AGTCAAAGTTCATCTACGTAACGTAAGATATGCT", "TARGET_ENTITY": "PPARg:RXRa 90nM:30nM, anti-RXR (NR concentration 90 nM, RXRa partner concentration 30 nM)", "TEST_VALUE": 5.65}
{"BIOSEQUENCE": "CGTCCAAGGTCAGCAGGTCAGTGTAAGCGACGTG", "TARGET_ENTITY": "PPARg:RXRa 90nM:30nM, anti-RXR (NR concentration 90 nM, RXRa partner concentration 30 nM)", "TEST_VALUE": 3.01}
{"BIOSEQUENCE": "CATACAGGGTCAGCTACGCCAGAGTAGGGACGGC", "TARGET_ENTITY": "PPARg:RXRa 90nM:30nM, anti-RXR (NR concentration 90 nM, RXRa partner concentration 30 nM)", "TEST_VALUE": 2.03}
{"BIOSEQUENCE": "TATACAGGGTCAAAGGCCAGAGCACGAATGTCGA", "TARGET_ENTITY": "PPARg:RXRa 90nM:30nM, anti-RXR (NR concentration 90 nM, RXRa partner concentration 30 nM)", "TEST_VALUE": 7.77}
{"BIOSEQUENCE": "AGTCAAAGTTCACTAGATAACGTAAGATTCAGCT", "TARGET_ENTITY": "PPARg:RXRa 90nM:30nM, anti-RXR (NR concentration 90 nM, RXRa partner concentration 30 nM)", "TEST_VALUE": 4.53}
{"BIOSEQUENCE": "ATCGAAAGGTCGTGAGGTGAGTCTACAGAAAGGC", "TARGET_ENTITY": "PPARg:RXRa 90nM:30nM, anti-RXR (NR concentration 90 nM, RXRa partner concentration 30 nM)", "TEST_VALUE": 2.92}
